Reported composite z-score by item:
Tested on: Plasmodium falciparum Sir2 (PF13_0152, Sir2A)
Procedure summary: pfSir2 binders on small-molecule microarrays, primary screen, biochemical, small-molecule microarray, 635 nm fluorescence (AID 1098);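 note: score merges spot fluorescence intensity with its signal-to-noise ratio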
Experimental parameters: small-molecule microarray binding, fluorescence 635 nm; higher = more signal

>  <Molecule>
O=C1C[C@@](C(=O)NCC(F)(F)F)(c2ccc([N+](=O)[O-])cc2)[C@@H](c2ccc(CO)cc2)N1C1CCCCC1

>  <composite z-score>
1.65

$$$$
>  <Molecule>
Cc1ccc(S[C@]2(C(=O)NCc3ccccc3)CC(=O)N(C(C)C)[C@@H]2c2ccc(CO)cc2I)cc1

>  <composite z-score>
0.169

$$$$
>  <Molecule>
CCCCN1CC=CC23O[C@@H]4/C=C\CCC(C)OC(=O)C4[C@H]2C(=O)N(CCCCCCO)[C@@H]3C1=O (some centres undefined)

>  <composite z-score>
0.906

$$$$
>  <Molecule>
COc1ccccc1CN1C(=O)c2ccccc2[C@@H](C(=O)NC(C)C)[C@@H]1c1ccc(CO)cc1

>  <composite z-score>
0.567

$$$$
>  <Molecule>
O=C1c2ccccc2[C@](Cc2ccccc2I)(C(=O)NCCN2CCOCC2)[C@H](c2ccc(CO)cc2)N1Cc1ccccc1

>  <composite z-score>
1.21

$$$$
>  <Molecule>
Cc1ccc(S[C@]2(C(=O)NC3CC3)CC(=O)N(Cc3ccccc3Cl)[C@@H]2c2ccc(CO)cc2I)cc1

>  <composite z-score>
1.35

$$$$
>  <Molecule>
COc1ccc([Si](C)(C)[C@@H]2[C@@H](CC(=O)N3CCC[C@H]3CO)O[C@]3(C(=O)N(Cc4ccc(N5C(=O)c6cccc7cccc5c67)cc4)c4ccccc43)[C@H]2C)cc1

>  <composite z-score>
1.56

$$$$
>  <Molecule>
Cc1ccc(S[C@]2(C(=O)NCC(C)C)CC(=O)N(Cc3ccccc3Cl)[C@@H]2c2ccc(CO)cc2I)cc1

>  <composite z-score>
1.22

$$$$
>  <Molecule>
C=CC[C@]1(C(=O)N(C)C)N=C(c2ccc(OCCCO)cc2)O[C@H]1c1ccccc1N=[N+]=[N-]

>  <composite z-score>
0.265

$$$$
>  <Molecule>
C=C[C@H](COC(C)=O)NS(=O)(=O)c1ccc(Br)cc1

>  <composite z-score>
0.786

$$$$
>  <Molecule>
COC(=O)C1(Cc2ccccc2)C=C2C(=C(c3ccccc3)C(=O)C2C)CN1 (centres undefined)

>  <composite z-score>
-0.208

$$$$
>  <Molecule>
COc1ccc([Si](C)(C)[C@H]2[C@H](CCO)O[C@@]3(C(=O)N(Cc4cccc(N5CCCCC5=O)c4)c4ccccc43)[C@@H]2C)cc1

>  <composite z-score>
1.08

$$$$
>  <Molecule>
C[C@]12C(=O)N(CCCCCCO)[C@@H]3C(=O)N(c4ccc(Cl)cc4)CC=CC31O[C@@H]1/C=C\CCCOC(=O)C12 (some centres undefined)

>  <composite z-score>
1.93

$$$$
>  <Molecule>
COCCOC(=O)N1C(=O)[C@@]2(c3cc(C#CC4(O)CCCCCC4)ccc31)[C@H](C(N)=O)[C@H]1C(=O)O[C@H](c3ccccc3)[C@H](c3ccccc3)N1[C@@H]2c1ccccc1OCCO

>  <composite z-score>
1.28

$$$$
>  <Molecule>
CC(C)C(O)C1C=CC2C(=O)N(C)C(=O)C2N1Nc1ccccc1 (centres undefined)

>  <composite z-score>
0.778

$$$$
>  <Molecule>
C=C1C2CC3C(=C4C(CO[C@@H]4[C@H]4CCCN4S(=O)(=O)c4ccccc4[N+](=O)[O-])C4C(=O)N(C)C(=O)C34)CC2C(=O)N1C (some centres undefined)

>  <composite z-score>
0.201

$$$$
>  <Molecule>
COC(=O)C(CC#Cc1ccc2c(c1)[C@]1(C(=O)N2)[C@H](C(=O)O)[C@H]2C(=O)O[C@H](c3ccccc3)[C@H](c3ccccc3)N2[C@@H]1c1ccccc1OCCO)C(=O)OC

>  <composite z-score>
1.58

$$$$
>  <Molecule>
C=C(CCCC)/C(=C/C[C@@H](OC(=O)c1ccncc1)c1cccc(OCCO)c1)c1cnc2ccccc2c1

>  <composite z-score>
0.148

$$$$
>  <Molecule>
COC(=O)[C@@]1(Cc2ccccc2)[C@H]2c3cc(C(=O)N4CCCC4)[nH]c3C[C@H]2CN1C(=O)c1ccccc1

>  <composite z-score>
1.1

$$$$
>  <Molecule>
CN(C)CCCNC(=O)[C@@]1(c2ccc([N+](=O)[O-])cc2)CC(=O)N(CC23CC4CC(CC(C4)C2)C3)[C@@H]1c1ccc(CO)cc1

>  <composite z-score>
1.72

$$$$
>  <Molecule>
O=c1cccc(-c2ccc(C(F)(F)F)cc2)o1

>  <composite z-score>
-0.426

$$$$
>  <Molecule>
COc1ccc([Si](C)(C)[C@H]2[C@H](CCn3cc(CCO)nn3)O[C@@]3(C(=O)N(Cc4ccc(N5C(=O)c6cccc7cccc5c67)cc4)c4ccccc43)[C@@H]2C)cc1

>  <composite z-score>
0.96

$$$$
>  <Molecule>
C=C(CCCC)C(=O)CC[C@@H](OC(=O)c1ccccc1-c1ccccc1C(=O)O)c1cccc(OCCO)c1

>  <composite z-score>
1.13

$$$$
>  <Molecule>
CC(C)(C)N1CC=CC23O[C@@H]4C=CCOC(=O)[C@@H]4[C@H]2C(=O)N(CCCO)[C@@H]3C1=O (some centres undefined)

>  <composite z-score>
1.43

$$$$
>  <Molecule>
CCCC[C@@H]1C[C@H]1[C@@H](NC(=O)c1cccnc1)c1ccc(-c2ccccc2)cc1

>  <composite z-score>
0.0651

$$$$
>  <Molecule>
[N-]=[N+]=NCc1ccccc1[C@H]1OC(c2ccc(OCCCO)cc2)=N[C@@]1(CCS(=O)(=O)c1ccccc1)C(N)=O

>  <composite z-score>
1.37

$$$$
>  <Molecule>
CCOC(=O)C1=CC[C@@H](c2ccccc2)N(S(=O)(=O)c2ccc(C)cc2)C1

>  <composite z-score>
0.243

$$$$
>  <Molecule>
C=CCOC(=O)[C@H]1[C@@H]2C(=O)O[C@@H](c3ccccc3)[C@@H](c3ccccc3)N2[C@@H](c2ccc(OCCOC(=O)[C@H]3C[C@H]4C(=O)N[C@@H](Cc5ccccc5)C(=O)N4[C@H]3c3ccc(O)cc3)cc2)[C@]12C(=O)Nc1ccc(I)cc12

>  <composite z-score>
1.34

$$$$
>  <Molecule>
CC(=O)n1cc(C(O)C2C=CC3C(=O)N(Cc4ccccc4)C(=O)C3N2n2cnnc2)c2ccccc21 (centres undefined)

>  <composite z-score>
1.17

$$$$
